Tested on: CCRF-CEM
assayText: Cytoprotective activity against diethyl maleate-induced cell death in human CEM cells assessed as cell viability at 2.5 uM treated 18 hrs before diethyl maleate challenge measured after 4 hrs by trypan blue assay
Format: functional
testContext: read-out: Activity
Measured viability at 2.5 µM accompanies every entry in the list below.
measureName: viability at 2.5 µM (%)

>>> measurement("CC1=C(C)C(=O)C(CCCCCCCCCCO)=C(C)C1=O")
96.3
>>> measurement("COC1=C(OC)C(=O)C(CCCCCCCCCCO)=C(C)C1=O [IDEBENONE]")
86.2
>>> measurement("COC1=C(C)C(=O)C(C)=C(CCCCCCCCCCO)C1=O")
77.1
>>> measurement("COC1=C(C)C(=O)C(CCCCCCCCCCO)=C(C)C1=O")
82.3

---

System: C2C12
assayText: Inhibition of rotenone-induced blockade of mitochondrial complex 1 in mouse C2C12 cells assessed as increase of oxygen consumption at 10 uM after 2 hrs by fluorescence assay in presence of FCCP
Type: cell-based
Active and inactive are the calls of the source. The rule behind the calls is not given here.
Outcome codes: active, inactive

>>> categorylabel("COC1=C(OC)C(=O)C(CCCCCCCCCC[P+](c2ccccc2)(c2ccccc2)c2ccccc2)=C(C)C1=O")
"inactive"
>>> categorylabel("COC1=C(OC)C(=O)C(CCCCC[P+](c2ccccc2)(c2ccccc2)c2ccccc2)=C(C)C1=O")
"inactive"
>>> categorylabel("COC1=C(OC)C(=O)C(CCC[P+](c2ccccc2)(c2ccccc2)c2ccccc2)=C(C)C1=O")
"active"
>>> categorylabel("COC1=C(OC)C(=O)C(CCCCCCCCCCCCCCC[P+](c2ccccc2)(c2ccccc2)c2ccccc2)=C(C)C1=O")
"inactive"

---

Tested on: CCRF-CEM
assayText: Cytoprotective activity against diethyl maleate-induced cell death in human CEM cells assessed as cell viability at 0.1 uM treated 18 hrs before diethyl maleate challenge measured after 4 hrs by trypan blue assay
Assay type: functional
testContext: read-out: Activity
# viability at 0.1 µM values compiled below
measureName: viability at 0.1 µM (%)

>>> measurement("CC1=C(C)C(=O)C(CCCCCCCCCCO)=C(C)C1=O")
34.8
>>> measurement("COC1=C(C)C(=O)C(C)=C(CCCCCCCCCCO)C1=O")
8.27
>>> measurement("COC1=C(C)C(=O)C(CCCCCCCCCCO)=C(C)C1=O")
22.9
>>> measurement("COC1=C(OC)C(=O)C(CCCCCCCCCCO)=C(C)C1=O")
24.6

From: ChEMBL document CHEMBL1221324
